test system: SRC; conditions: concentration: 1 μM, replicates: in singlicate; n = 1;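 note: KINOMEscan kinase panel screen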
readout: %Inh (%)

• Cl.O=C(Nc1cccc(-c2nn3ncccc3c2-c2ccnc(Nc3cccnc3)n2)c1)c1c(F)cccc1F = 13
• Cn1ccc2ncnc(Oc3cccc(C(=O)Nc4ccccc4)c3)c21 = 0
• CS(=O)(=O)c1ccc(-c2c(-c3ncn[nH]3)sc(N3CCOCC3)c2C#N)cc1 = 0
• O=C1NC(=O)C(N2CCc3ccccc32)=C1c1ccccc1Cl = 18

* * *

test system: RIOK1; conditions: concentration: 1 μM, replicates: in singlicate; n = 1
readout: %Inh (%)

- O=S(=O)(c1ccc(-c2ccnc3[nH]ccc23)cc1)N1CCCC1 [GSK846226]: 86
- Cc1c(O)cccc1Nc1ccnc2ccc(C(F)(F)F)cc12.Cl [GW466413]: 34
- COC(=O)c1c(-c2ccccc2)c2cc(OC)ccc2c(=O)n1Cc1ccccc1: 0
- CCn1c(-c2ccccn2)nc2cnccc21 [SB-736398]: 4

* * *

test system: LRRK2; details: concentration: 1 μM, replicates: in singlicate; n = 1
Reported %Inh values for a set of compounds
readout: %Inh

* COc1ccc(CNC(=O)NC2CCN(c3ccnc(Nc4cc(OC)c(OC)c(OC)c4)n3)C2)cc1 (stereo not drawn) [GSK1379748] | 0%
* CCn1c(-c2ccccn2)nc2cnccc21 [SB-736398] | 31%
* CC(C)(C)c1ccc(C(=O)Nc2cn3cc(Cl)ccc3n2)cc1 | 0%

* * *

test system: MAP4K2; conditions: concentration: 1 μM, replicates: in singlicate; n = 1
Listed next: entries and their corresponding %Inh.
readout: %Inh (%)

* CCn1c(-c2cccnc2O)nc2cnccc21 | 0
* CCCc1ccc(S(=O)(=O)NC2CCN(c3ccnc(Nc4ccc(F)cc4)n3)C2)cc1 (stereo not drawn) | 0
* O=C1NC(=O)C(N2CCc3ccccc32)=C1c1ccccc1Cl | 21

* * *

test system: FGFR1; conditions: concentration: 1 μM, replicates: in singlicate; n = 1
As shown below, each of these molecules has a reported %Inh value.
readout: %Inh (%)

* COc1cccc(NC(=O)NC2CCN(c3ccnc(Nc4ccc(F)cc4)n3)C2)c1 (centres unmarked) [GSK1379721] | 0
* O=C(O)COc1ncnc2cc(-c3ccc4[nH]ncc4c3)sc12 | 23
* Cc1csc(-c2nc(Nc3ccncc3)c3ccccc3n2)n1 [GW869640] | 17
* Cl.O=C(Nc1cccc(-c2nn3ncccc3c2-c2ccnc(Nc3cccnc3)n2)c1)c1c(F)cccc1F [GSK312879] | 8
* CC(C)(C)c1ccc(C(=O)Nc2cn3cc(-c4cccnc4)ccc3n2)cc1 | 27

* * *

test system: OSR1; construct: gene OXSR1; conditions: concentration: 1 μM, replicates: in singlicate; n = 1
readout: %Inh

• Cl.Oc1ccc(-c2nc(-c3ccccc3)[nH]c2-c2ccncc2)cc1 = 0%
• Nc1nc(-c2nccs2)c(-c2ccnc3ccccc23)s1 = 6%
• Cc1cc(NCC(c2ccccc2)c2ccccc2)nc(NCc2ccc(C(F)(F)F)cc2)n1 = 3%
• Cc1cc(N2Cc3ccccc3C2)nc(Nc2ccc(S(=O)(=O)N3CCOCC3)cc2)n1.Cl = 0%
• Cc1ccc(-c2cc(-c3c[nH]nc3-c3ccccn3)ccn2)cc1 = 5%
• COc1cc(Nc2nccc(N3CCC(NC(=O)Nc4cc(C)ccc4C)C3)n2)cc(OC)c1OC (stereo not drawn) = 9%
